System: P. falciparum stage V gametocytes
Parameters: BacTiter-Glo ATP luminescence viability of purified stage V gametocytes in 384-well plates, per cent inhibition versus DMSO
conditions: 48 h, 5 µM, inhibitor, % Inhibition
Among all 13,000 compounds or so, about 3,200 (25%) showed an effect of 50% or more. This is one part of the list.
attribute measured: % Inhibition (%)

> print(dat)
                                   compound  measured.number
1  COc1cccc(/C=C/C(=O)NC2CCC(CN3CCC(c4c[nH]c5ccccc45)CC3)CC2)c1 (stereo not shown)            100.1
2  CN(Cc1cnc2nc(N)nc(N)c2n1)c1ccc(C(=O)NC(CCC(=O)O)C(=O)O)cc1 (stereo not shown)            33.25
3  O=C(/C=C/c1c(Cl)cccc1Cl)NC1CCC(CN2CCC(c3c[nH]c4ccccc34)CC2)CC1 (stereo not shown)            7.287
4  O=C(Nc1ccc(Cn2ncc(N3CCCNCC3)c(Cl)c2=O)cc1)Nc1ccc(-c2ccccc2)cc1            -32.1

###

Test system: P. falciparum stage V gametocytes
Parameters: BacTiter-Glo ATP luminescence viability of purified stage V gametocytes in 384-well plates, per cent inhibition versus DMSO
conditions: 48 h, 5 µM; inhibitor
In all, about 13,000 compounds went through this assay and about 3,200 (25%) showed an effect of 50% or more. The list shows a part of the results.
Here the recorded % Inhibition is given for each entry.
attribute measured: % Inhibition (%)

> print(dat)
                           structure.smiles  result.unit  measured.number
1  CN(C)CCOc1ccc2c(c1)OC(C)(C)C=C2c1cccc2ccccc12            %           -10.44
2  CN(CCN)Cc1ccc(-c2ccc(-c3nc4cc(C(F)(F)F)ccc4[nH]3)s2)cc1.O=C(O)C(F)(F)F            %            65.23
3  COc1cc2nc(N3CCC(CNC(=O)c4ccc(-c5ccc(C(F)(F)F)cc5)cc4)CC3)nc(N)c2cc1OC            %            114.6
4  N#Cc1ccc(CN2CCC(Oc3ccc(NC(=O)c4cccs4)cc3Cl)CC2)cc1            %            10.06
5  COc1cc2nc(N3CCC(CNC(=O)c4ccc(NC(=O)c5ccc(Cl)cc5)cc4)CC3)nc(N)c2cc1OC            %            79.48

###

Test system: P. falciparum stage V gametocytes
Parameters: BacTiter-Glo ATP luminescence viability of purified stage V gametocytes in 384-well plates, per cent inhibition versus DMSO
conditions: 48 h, 5 µM; inhibitor
The whole screen tested about 13,000 compounds, of which about 3,200 (25%) showed an effect of 50% or more. Some of the results follow.
attribute measured: % Inhibition

> print(dat)
                                    molecule    result
 1  CCc1ccccc1N=C1c2c(cccc2[N+](=O)[O-])C(=O)C1C(C)=O (centres unmarked)   -10.56%
 2  Cc1cc(CN2CCC(N3CC(c4ccccc4)(c4ccccc4)OC3=O)C2)ccc1O (centres unmarked)   -30.84%
 3  Cc1cc(N2CCCC2=O)ccc1-c1ccc(C(=O)N2CCC(Oc3cccc(Cl)c3)CC2)cc1   -32.31%
 4  COc1cc2ccccc2c(OC)c1CCNCCCCNCCc1c(OC)cc2ccccc2c1OC    116.9%
 5  CCOC(=O)c1ccc(NC(=O)Nc2cccc(-c3ccc(-c4nc5ccc(F)cc5[nH]4)cc3)c2)cc1  -0.2568%
 6  COc1ccc2c(c1)Nc1ccc(Cl)cc1C2N (centres unmarked)    106.2%
 7  O=C(CCCC(=O)Nc1ccc(C2=NCCN2)cc1)Nc1ccc(C2=NCCN2)cc1   -1.956%
 8  CCCN(CCCCNC(=O)c1ccc(-c2cccnc2)cc1)C1CCc2c(O)cccc2C1 (centres unmarked)   -19.52%
 9     COc1ccc(O)c(Cc2cnc3nc(N)nc(N)c3c2C)c1    -28.9%
10  O=C(Nc1ccc(C(=O)Nc2cccc(C3=NCCN3)c2)cc1)Nc1ccc(C2=NCCN2)cc1   -21.25%
11   CCC(=O)Nc1ccc(Nc2nc(C)cc(N3CCCC3)n2)cc1   -15.13%
12  COc1ccc(N2CCN(CCCCNC(=O)c3ccc(/C=C/c4ccc(Cl)c(Cl)c4)cc3)CC2)c(OC)c1   -78.16%
13  COc1ccc(CCN2CCC(CN(C)Cc3cnn(-c4ccccc4)c3)CC2)cc1   -8.037%
14  OCC(CO)(CO)NCc1ccc2c3c(cccc13)-c1ccccc1-2   -8.777%
15  COc1cc2ncnc(Nc3ccc(OCc4ccccc4Br)c(OC)c3)c2cc1OC   -3.642%
16  Cc1cc2[nH]c(-c3ccc(C(=O)NCCCN4CCN(c5cccc(Cl)c5)CC4)cc3F)nc2cc1Cl   -4.793%
17  CN=C(N)c1ccc(NC(=O)C=Cc2ccc(C(=O)Nc3ccc(C(N)=NC)cc3)cc2)cc1    77.71%
18  COc1ccc2cc(C(=O)NC3CCC(CCN4CCc5cc(C#N)ccc5C4)CC3)[nH]c2c1 (centres unmarked)   -26.16%
19       Cc1cccc(CNc2nccc3[nH]c4ccccc4c23)c1   -2.626%
20  COc1ccc(CNc2nc(NCc3ccccc3)c3cc(OC)c(OC)cc3n2)cc1OC    102.4%
21        C=CCOc1cc(Cc2cnc(N)nc2N)cc(OC)c1OC   -3.964%
22  O=S(=O)(NCCN1CCCC1)c1cccc(-c2cccc(CNCCc3cccs3)c2)c1    78.26%
23  CC(CNc1ccnc(Nc2ccc3[nH]c(=O)[nH]c3c2)n1)c1ccccc1 (centres unmarked)   -16.39%

This collection of values is drawn from paper PMC4552634.
